Some molecules, each annotated with its measured pIC50.
target_or_system: Nonstructural protein 3 (Zika virus, UniProt A0A024AXB9)
Sequence (A0A024AXB9 whole entry): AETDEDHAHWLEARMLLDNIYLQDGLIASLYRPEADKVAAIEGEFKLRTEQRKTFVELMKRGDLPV
protocol_details: Functional biochemical assay to identify treatments for viral infectious disease that targets Zika NS2B-NS3 protease. Utilizing a direct enzyme activity measurement method, reading the fluorescence intensity is used to characterize the relative potency of inhibitors as IC50.
Design: species or system PRVABC59
pIC50: −log10 of the molar value.
quantity_kind: pIC50

• O=S(=O)(c1cccnc1)N1CCN(Cc2c[nH]c3ccccc23)CC1 = < 4.00
• CN1CCc2c([nH]c3ccc(C(=O)Nc4ccc5c(c4)CNC5)cc23)C1=O = 5.93
• C[C@@H]1C[C@@H](C(=O)Nc2cccc(CN)c2)CCO1 = < 4.00
• Cc1c(C(=O)Nc2cccc(Cn3ccccc3=O)c2)cc(C2CC2)n1C = < 4.60
• CC(=O)N1CCC[C@H]1C(=O)N[C@@H](C(=O)Nc1cccc(CN)c1)c1ccc(OCc2ccccc2)cc1 = < 4.00
• CC(C)n1cc(CNC(=O)[C@@H](NC(=O)OCc2ccccc2)c2ccc(OCc3ccccc3)cc2)cn1 = < 4.00
• O=C(O)c1ccsc1NS(=O)(=O)c1ccc(Oc2ccccc2Cl)cc1 = 4.56
• Cc1c(C(=O)Nc2cc(-c3cnn(C)c3)ccn2)cc(C2CC2)n1C = < 4.00
• CCn1c(=O)c(N2CC[C@H](N3CCCC3=O)C2)nc2ccccc21 = < 4.00
• O=C(Nc1cc(Cl)cc([C@H]2C[C@@H]2c2cccc(-c3nnn[nH]3)c2)c1)OCc1ccccc1 = 4.56
